tested on: A549; assay: Solid tumor cell growth inhibition, MTT, 72 h; assay type: cell-based; settings: Homo sapiens
Labelling: IC90 reported below 6 µg/mL becomes criterion met; at or above becomes criterion not met.

Please review the following examples before continuing.
C=C1C(=O)[C@]23[C@H](OC(=O)C4CCC(NC(=O)c5ccccn5)CC4)[C@H]1CC[C@H]2[C@@]12CO[C@@]3(O)[C@@H](O)[C@@H]1C(C)(C)CCC2=O (some centres unmarked) :: criterion not met
C=C1C(=O)[C@]23[C@H](OC(=O)/C=C/c4ccccc4)[C@H]1CC[C@H]2[C@@]12CO[C@@]3(O)[C@@H](O)[C@@H]1C(C)(C)CCC2=O :: criterion met
C=C1C(=O)[C@]23[C@H](OC(=O)/C=C/c4ccccc4)[C@H]1CC[C@H]2[C@@]12CO[C@@]3(O)[C@@H](O)[C@@H]1C(C)(C)CC[C@@H]2OC(C)=O :: criterion not met
C=C1C(=O)[C@]23[C@H](OC(=O)c4ccc(OC)c(OC)c4)[C@H]1CC[C@H]2[C@@]12CO[C@@]3(O)[C@@H](O)[C@@H]1C(C)(C)CCC2=O :: criterion met

Now look at this entry.
Req: A record lists C=C1C(=O)[C@]23[C@H](OC(=O)c4ccccc4Cl)[C@H]1CC[C@H]2[C@@]12CO[C@@]3(O)[C@@H](O)[C@@H]1C(C)(C)CCC2=O . Is its IC90 below 6 µg/mL?
Resp: criterion met
